Biological target: T1, human Nectin-4 extracellular antigen hNectin-4-His (human, UniProt Q96NY8 32-349)
T1 construct: C-terminal 8xHis tag included
T1 sequence: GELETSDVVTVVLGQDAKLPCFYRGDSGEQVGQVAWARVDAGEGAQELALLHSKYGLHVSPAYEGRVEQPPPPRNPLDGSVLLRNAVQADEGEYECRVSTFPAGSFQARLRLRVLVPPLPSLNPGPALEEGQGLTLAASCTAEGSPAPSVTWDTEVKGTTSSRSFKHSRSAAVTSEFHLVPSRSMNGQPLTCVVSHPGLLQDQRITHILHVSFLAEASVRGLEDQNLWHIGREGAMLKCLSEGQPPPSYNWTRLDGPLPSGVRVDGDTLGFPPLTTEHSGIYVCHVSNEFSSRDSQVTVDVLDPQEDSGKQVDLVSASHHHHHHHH
Experiment: ELISA, phage scFv supernatant 1:50
endpoint: OD value (OD)
One number for each entry, in OD.

Examples with answers:
>>> measurement("10F4-2C12 scFv (scFv, V domains shown, phage clone supernatant) VH: EVQLVESGGGLVQPGGSLRLSCAASGYNFGDYSMSWVRQAPGKGLEWVSVIDTTSAYTRYADSVKGRFTISRDNSKNTLYLQMNSLRAEDTAVYYCAREYSDVVDYVSVRTPLDYWGQGTLVTVSS VL: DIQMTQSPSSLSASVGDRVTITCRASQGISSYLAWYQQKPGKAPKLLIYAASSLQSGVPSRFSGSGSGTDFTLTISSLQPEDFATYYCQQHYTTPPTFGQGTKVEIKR")
1.45
>>> measurement("1G8-2G7 scFv (scFv, V domains shown, phage clone supernatant) VH: EVQLVESGGGLVQPGGSLRLSCAASGGTFYTYAMSWVRQAPGKGLEWVSRIYSTKGTPDYADSVKGRFTISRDNSKNTLYLQMNSLRAEDTAVYYCARQTEDRSYGYDLDYWGQGTLVTVSS VL: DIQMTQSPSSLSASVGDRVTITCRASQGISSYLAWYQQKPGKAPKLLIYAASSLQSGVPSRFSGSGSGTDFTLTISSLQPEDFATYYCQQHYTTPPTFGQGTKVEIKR")
1.49
>>> measurement("10F4-2A9 scFv (scFv, V domains shown, phage clone supernatant) VH: EVQLVESGGGLVQPGGSLRLSCAASGYTFTDYDMSWVRQAPGKGLEWVSGIKQYKGYTSYADSVKGRFTISRDNSKNTLYLQMNSLRAEDTAVYYCAREYSDVVDYVSVRTPLDYWGQGTLVTVSS VL: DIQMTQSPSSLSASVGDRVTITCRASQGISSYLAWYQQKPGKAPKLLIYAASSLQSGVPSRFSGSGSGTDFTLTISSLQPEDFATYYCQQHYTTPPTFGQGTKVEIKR")
1.57

Please go through the list and note OD value for each binder.
1. 1G8-2D9 scFv (scFv, V domains shown, phage clone supernatant) VH: EVQLVESGGGLVQPGGSLRLSCAASGDIFDGYSMSWVRQAPGKGLEWVSRIDTGGSVKNYADSVKGRFTISRDNSKNTLYLQMNSLRAEDTAVYYCARQTEDRSYGYDLDYWGQGTLVTVSS VL: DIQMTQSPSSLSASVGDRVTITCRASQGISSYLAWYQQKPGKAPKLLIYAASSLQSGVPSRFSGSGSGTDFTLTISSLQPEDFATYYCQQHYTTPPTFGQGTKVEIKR
2. 1G8-1C8 scFv (scFv, V domains shown, phage clone supernatant) VH: EVQLVESGGGLVQPGGSLRLSCAASGFSFGSSAMSWVRQAPGKGLEWVSAISGSSDSPRYADSVKGRFTISRDNSKNTLYLQMNSLRAEDTAVYYCARQTEDRSYGYDLDYWGQGTLVTVSS VL: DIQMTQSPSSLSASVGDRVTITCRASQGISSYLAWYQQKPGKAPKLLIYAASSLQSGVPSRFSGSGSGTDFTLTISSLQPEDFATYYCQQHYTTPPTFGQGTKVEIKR

1. 1.54
2. 1.59
